Experimental protocol: Tapped bulk density, compressibility (Carr's) index and Hausner ratio
Type: physicochemical
Condition details: Mean of duplicate
Parameter: Tapped Bulk Density (g/mL)

CCCCOCCOc1ccc(-c2ccc3c(c2)/C=C(/C(=O)Nc2ccc([S@@+]([O-])Cc4cncn4CCC)cc2)CCCN3CC(C)C)cc1 [Form A Micronised] | 0.2

a: CCCCOCCOc1ccc(-c2ccc3c(c2)/C=C(/C(=O)Nc2ccc([S+]([O-])Cc4cncn4CCC)cc2)CCCN3CC(C)C)cc1 (stereo not drawn) [Form C]
b: CCCCOCCOc1ccc(-c2ccc3c(c2)/C=C(/C(=O)Nc2ccc([S+]([O-])Cc4cncn4CCC)cc2)CCCN3CC(C)C)cc1 (stereo not drawn) [Form A Non-micronised]
Identify the entry with the larger Tapped Bulk Density. Options: a and b Indicate your choice by writing its label.
a
(a: 0.5 g/mL, b: 0.2 g/mL)

* * *

Experimental protocol: Tapped bulk density, compressibility (Carr's) index and Hausner ratio
Assay type: physicochemical
Condition details: Rep. 2; M/Vf, Vf = volume after 10,000 taps
Parameter: Tapped Bulk Density (g/mL)

CCCCOCCOc1ccc(-c2ccc3c(c2)/C=C(/C(=O)Nc2ccc([S+]([O-])Cc4cncn4CCC)cc2)CCCN3CC(C)C)cc1 (stereo not drawn) [Form A Non-micronised] | 0.21

1: CCCCOCCOc1ccc(-c2ccc3c(c2)/C=C(/C(=O)Nc2ccc([S@@+]([O-])Cc4cncn4CCC)cc2)CCCN3CC(C)C)cc1 [Form A Micronised]
2: CCCCOCCOc1ccc(-c2ccc3c(c2)/C=C(/C(=O)Nc2ccc([S+]([O-])Cc4cncn4CCC)cc2)CCCN3CC(C)C)cc1 (stereo not drawn) [Form C]
From the items above, decide which of 1 and 2 has the lower Tapped Bulk Density reading. Indicate your choice by writing its label.
1
(1: 0.16 g/mL, 2: 0.48 g/mL)
